# target_entity: T1, human MSLN-R3-his protein (human, UniProt Q13421 487-598)
# T1 construct: it is put last here; also called human MSLN-R3 protein; hMSLN-R3-his; not shown: His tag
# test_protocol: ELISA on coated antigen, antibody 20 nM
value_type: OD450 (OD)
// return numeric value only (unit: OD, not printed)

# binder, result_value
measured = [
    ("S009-F7.33.24 (antibody, human IgG1, kappa, V domains shown, Human-murine chimeric antibody, human IgG1 heavy and kappa light constant regions) VH: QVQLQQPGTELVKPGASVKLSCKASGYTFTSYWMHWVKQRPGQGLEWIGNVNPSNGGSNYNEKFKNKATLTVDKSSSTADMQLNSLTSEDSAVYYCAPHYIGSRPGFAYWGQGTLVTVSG VL: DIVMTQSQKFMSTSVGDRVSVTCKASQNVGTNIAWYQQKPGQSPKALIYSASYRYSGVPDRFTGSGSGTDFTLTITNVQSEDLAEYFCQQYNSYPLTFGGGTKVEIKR", 2.67),
]

Here is another binder to look at.
GET /value?item= S009-F7.11.11 (antibody, human IgG1, kappa, V domains shown, Human-murine chimeric antibody, human IgG1 heavy and kappa light constant regions) VH: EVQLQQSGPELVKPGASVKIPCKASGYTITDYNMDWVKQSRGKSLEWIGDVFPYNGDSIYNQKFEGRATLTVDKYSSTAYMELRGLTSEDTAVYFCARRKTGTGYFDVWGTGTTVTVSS VL: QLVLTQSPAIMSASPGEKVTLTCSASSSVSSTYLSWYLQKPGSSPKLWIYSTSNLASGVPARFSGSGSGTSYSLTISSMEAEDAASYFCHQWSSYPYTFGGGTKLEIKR &field=OD450 returns 2.58
